Tested on: OVCAR-8 ovarian
METHOD SUMMARY: NCI-60 one-dose screen, 48 h (100 = growth as untreated, 0 = no growth, -100 = all killed)
CONDITION DESCRIPTION: 10 µM unless noted
About 83,000 compounds went through this panel and 20% of them were active in at least one assay; those are over-represented in the sample as a whole.
Threshold 40%: growth strictly smaller gives y, otherwise n.

* COc1ccc(O)c(-c2cc(-c3ccccc3)c(C#N)c(=O)[nH]2)c1 | n
* O=C(CC12CC3CC(CC(C3)C1)C2)NCCOCCOCCOCCNC(=O)c1cc2c(o1)C(=O)c1ccccc1C2=O | y
* Cc1nc(Nc2ccc(NC(=S)Nc3ccccc3)cc2)nc2nc(Nc3cccc(Cl)c3)[nH]c(=O)c12 | n

Find out if reported growth for CCOC(=O)c1sc(-c2ccc(OS(=O)(=O)c3ccc(C(C)(C)C)cc3)c(C=O)c2)nc1C is less than 40%
y

Find out if reported growth for Cc1nc(Nc2ccc(NC(=S)Nc3ccccc3)cc2)nc2nc(Nc3ccc(S(=O)(=O)O)cc3)[nH]c(=O)c12 is less than 40%
n

Find out if reported growth for COc1ccc(-c2nc3sccn3c2/C=C/C(=O)c2c[nH]c3ccccc23)cc1 is less than 40%
n

Find out if reported growth for O=C1Nc2ccccc2/C1=N/N=C/c1ccc(OC2OC(CO)C(O)C(O)C2O)cc1 (stereo not drawn) is less than 40%
n

Find out if reported growth for CCCCN1CCN(c2ccc3nc(-c4ccc5nc(-c6cc(OC)c(OC)c(OC)c6)[nH]c5c4)[nH]c3c2)CC1 is less than 40%
n
